# experiment description: Intrinsic clearance in human liver microsomes incubated for 30 mins in presence of NADPH by LC-MS/MS analysis
Labelling: CLint scaled at 0.5 h reported below 40 mL/min/kg becomes condition met; at or above becomes condition not met.

CCCc1nc2ccccc2n1Cc1ccc2c(c1)COc1ccc(F)cc1/C2=C(\C)c1noc(=O)[nH]1
condition not met
C/C(=C1/c2ccc(Cn3c(C4CC4)nc4c(Cl)nccc43)cc2COc2cc(F)ccc21)c1noc(=O)[nH]1
condition not met
C/C(=C1/c2ccc(Cn3c(C4CC4)nc4c(Cl)ccnc43)cc2COc2cc(F)ccc21)c1noc(=O)[nH]1
condition met
CCCc1nc2ccccc2n1Cc1ccc2c(c1)COc1c(F)cccc1/C2=C(\C)c1noc(=O)[nH]1
condition not met
CCCc1nc2c(C)cccc2n1Cc1ccc2c(c1)COc1ccccc1/C2=C(\C)c1noc(=O)[nH]1
condition not met
C/C(=C1/c2ccc(Cn3c(C4CC4)nc4cscc43)cc2COc2cc(F)ccc21)c1noc(=O)[nH]1
condition not met
CCCc1nc2c(C)cccc2n1Cc1ccc2c(c1)OCc1ncccc1/C2=C(\C)c1noc(=O)[nH]1
condition met

----------
Consider the following molecules and their measured CLint scaled at 0.5 h readings.
# experiment description: Intrinsic clearance in human liver microsomes incubated for 30 mins in presence of NADPH by LC-MS/MS analysis
endpoint: CLint scaled at 0.5 h

CCCc1nc2c(C)cccc2n1Cc1ccc2c(n1)COc1ccccc1/C2=C(\C)c1noc(=O)[nH]1
> 24.9 L/h/kg
C/C(=C1/c2ccc(Cc3c(C4CC4)nc4c5c(ccn34)OCC5)cc2COc2cc(F)ccc21)c1noc(=O)[nH]1
2 L/h/kg
C/C(=C1/c2ccc(Cc3c(C4CC4)nc4ccc(Cl)cn34)cc2COc2cc(F)ccc21)c1noc(=O)[nH]1
4 L/h/kg
COCc1nc2c(Cl)cccn2c1Cc1ccc2c(c1)COc1cc(F)ccc1/C2=C(\C)c1noc(=O)[nH]1
1.3 L/h/kg

----------
# system under test: Peroxisome proliferator-activated receptor gamma (Homo sapiens) (UniProt P37231)
# Sequence (P37231 whole entry): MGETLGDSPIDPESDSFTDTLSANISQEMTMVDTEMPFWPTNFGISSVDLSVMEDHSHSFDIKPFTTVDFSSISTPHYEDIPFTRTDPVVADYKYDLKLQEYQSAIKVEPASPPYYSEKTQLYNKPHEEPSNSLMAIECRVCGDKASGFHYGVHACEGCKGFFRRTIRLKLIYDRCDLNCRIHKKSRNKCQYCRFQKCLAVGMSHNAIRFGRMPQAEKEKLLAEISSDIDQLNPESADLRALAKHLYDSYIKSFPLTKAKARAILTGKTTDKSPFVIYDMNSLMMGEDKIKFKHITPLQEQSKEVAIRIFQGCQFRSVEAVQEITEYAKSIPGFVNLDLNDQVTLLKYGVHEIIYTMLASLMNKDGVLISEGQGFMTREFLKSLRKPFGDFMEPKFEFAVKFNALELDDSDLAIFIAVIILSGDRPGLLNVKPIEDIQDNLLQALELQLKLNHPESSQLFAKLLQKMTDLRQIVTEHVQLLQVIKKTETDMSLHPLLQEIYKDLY
# experiment description: Agonist activity at PPARgamma in human MKN45 cells assessed as induction of cell aggregation incubated for 5 days by Hoechst 33342 staining based IN cell analyzer method relative to (E)-3-(1-(8-((4-methyl-2-propyl-1H-benzo[d]imidazol-1-yl)methyl)dibenzo[b,e]oxepin-11(6H)-ylidene)ethyl)-1,2,4-oxadiazol-5(4H)-one
endpoint: Emax (%)

C/C(=C1/c2ccc(Cn3c(C4CC4)nc4c(Cl)ccnc43)cc2COc2cc(F)ccc21)c1noc(=O)[nH]1
101
C/C(=C1/c2ccc(Cn3c(C4CC4)nc4c(Cl)nccc43)cc2COc2cc(F)ccc21)c1noc(=O)[nH]1
105
COCc1nc2c(Cl)cccn2c1Cc1ccc2c(c1)COc1cc(F)ccc1/C2=C(\C)c1noc(=O)[nH]1
96
COCc1nc2cc(Cl)ccn2c1Cc1ccc2c(c1)COc1cc(F)ccc1/C2=C(\C)c1noc(=O)[nH]1
106
C/C(=C1/c2ccc(Cc3c(C4CC4)nc4ccccn34)cc2COc2cc(F)ccc21)c1noc(=O)[nH]1
106
CCCc1nc2ccccc2n1Cc1ccc2c(c1)COc1ccc(F)cc1/C2=C(\C)c1noc(=O)[nH]1
102
CCCc1nc2ccccc2n1Cc1ccc2c(c1)COc1cc(F)ccc1/C2=C(\C)c1noc(=O)[nH]1
104
C/C(=C1/c2ccc(Cc3c(C4CC4)nc4cc(Cl)ccn34)cc2COc2cc(F)ccc21)c1noc(=O)[nH]1
101
